Measured Activity accompanies every entry in the list below.
system: PBMC; experiment: Cytotoxicity against human PBMC at 60 ug/mL after 48 hrs by MTT assay; type: cell-based
Supply the numeric figure in %, leaving out any unit text.

In: For "O=C(OCCCCO)c1cccc2c1-c1ccccc1C2=O" , write its Activity.
Out: 38

In: For "O=C(NCCOCCO[C@@H]1O[C@H](CO)[C@@H](O)[C@H](O)[C@H]1O)c1ccc2c(c1)C(=O)c1ccccc1-2" , write its Activity.
Out: 6

In: For CC(O)CNC(=O)c1ccc2c(c1)C(=O)c1ccccc1-2 (stereo not drawn) , write its Activity.
Out: 5

In: For "O=C(NCCOCCO[C@@H]1O[C@H](CO)[C@@H](O[C@H]2O[C@H](CO)[C@@H](O)[C@H](O)[C@H]2O)[C@H](O)[C@H]1O)c1ccc2c(c1)C(=O)c1ccccc1-2" , write its Activity.
Out: 18

In: For "O=C(NCCCCO)c1ccc2c(c1)C(=O)c1ccccc1-2" , write its Activity.
Out: 45
